# collection of pKi values tested on σ2R/TMEM97 (Homo sapiens, UniProt Q5BJF2)
# Sequence (Q5BJF2 whole entry, looked up): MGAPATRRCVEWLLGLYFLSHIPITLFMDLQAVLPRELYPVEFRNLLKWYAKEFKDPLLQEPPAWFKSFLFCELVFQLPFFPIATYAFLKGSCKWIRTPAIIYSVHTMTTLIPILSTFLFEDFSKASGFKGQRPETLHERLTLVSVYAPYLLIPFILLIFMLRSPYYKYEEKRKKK
API: returns pKi as number; meaning -log10 of concentration in mol/L.

Solved entries:
compound="O=C(C1CCNCC1)N1CCC2CC1c1cc(-c3ccc(C(F)(F)F)cc3)ccc12 (stereo not shown)" readout_number=8.17
compound="FC(F)(F)c1ccc(-c2ccc3c(c2)C2CC3CCN2C2CCC2)cc1 (stereo not shown)" readout_number=6.67
compound="N#Cc1ccc(-c2ccc3c(c2)C2CC3CCCN2C2CCCC2)cc1 (stereo not shown)" readout_number=6.92
compound=CS(=O)(=O)c1cccc(-c2ccc3c(c2)C2C[C@H]3CCN2CCCO)c1 readout_number=5.73
compound=O=C(N1CC2(CN(CCO)C2)C1)N1CCC2C[C@H]1c1cc(-c3ccc(C(F)(F)F)cc3)ccc12 readout_number=6.36
compound="FC(F)(F)c1cccc(-c2ccc3c(c2)C2CC3CCCN2C2CCCC2)c1 (stereo not shown)" readout_number=7.21

So the reported pKi for O=C(C1CN(CCO)C1)N1CCC2C[C@H]1c1cc(-c3ccc(C(F)(F)F)cc3)ccc12 , on σ2R/TMEM97 (Homo sapiens, UniProt Q5BJF2), turned out to be 7.82

Item CN(C)[C@H]1CC[C@@H](N2CCC3C[C@H]2c2cc(-c4cccc(C(F)(F)F)c4)ccc23)CC1 ; assay system σ2R/TMEM97 (Homo sapiens, UniProt Q5BJF2); pKi reported as 8.02

Record OCCCN1CCC2CC1c1cc(-c3ccc(C(F)(F)F)cc3)ccc12 (stereo not shown) / σ2R/TMEM97 (Homo sapiens, UniProt Q5BJF2), pKi recorded as 7.96

σ2R/TMEM97 (Homo sapiens, UniProt Q5BJF2) data for CN1CCC(C(=O)N2CCC3C[C@@H]2c2cc(-c4ccc(C(F)(F)F)cc4)ccc23)CC1 ; its pKi: 7.45

Hey, just so you know, these numbers are from patent US20250387403A1.
